Hey, just so you know, these numbers are from ChEMBL document CHEMBL1147578.

Assay: Oral bioavailability in rats at 6 mg/kg
Assay type: ADME, organism-based
Details: rat, in vivo
ASSAY_READOUT: bioavailability (%)
Numeric answer only, unit % assumed.

Recorded result, CN(C)Cc1ccc(C(=O)Nc2ccc(Cl)cc2C(=O)Nc2ccc(Cl)cn2)cc1 , bioavailability: 100

----------
pIC50 data for Plasminogen (Homo sapiens) follow.
pIC50: −log10 of the molar value.

Example entries begin here.
{"columns": ["SMILES_INPUT", "pIC50"],
 "data": [
  ["CN(Cc1ccc(C(=O)Nc2ccc(Cl)cc2C(=O)Nc2ccc(Cl)cn2)cc1)C1=NCCN1", "< 4.96"],
  ["CN1CCN(Cc2ccc(C(=O)Nc3ccc(Cl)cc3C(=O)Nc3ccc(Cl)cn3)cc2)CC1", "< 4.96"],
  ["N=C1NCCN1Cc1ccc(C(=O)Nc2ccc(Cl)cc2C(=O)Nc2ccc(Cl)cn2)cc1", "< 4.96"],
  ["CN(Cc1ccc(C(=O)Nc2ccc(Cl)cc2C(=O)Nc2ccc(Cl)cn2)cc1)C(=N)c1ccccc1", "< 4.96"]
]}

GET /values?item= CN(Cc1ccc(C(=O)Nc2ccc(Cl)cc2C(=O)Nc2ccc(Cl)cn2)cc1)C1=NCCS1 &system= Plasminogen (Homo sapiens) returns pIC50: < 4.96
